Each record here notes measured kon.
- target.system: T1, monkey Fc-PD-1 protein (monkey, UniProt Q15116 25-170 (human entry))
- T1 construct: not shown: Fc part not described
- T1 chain: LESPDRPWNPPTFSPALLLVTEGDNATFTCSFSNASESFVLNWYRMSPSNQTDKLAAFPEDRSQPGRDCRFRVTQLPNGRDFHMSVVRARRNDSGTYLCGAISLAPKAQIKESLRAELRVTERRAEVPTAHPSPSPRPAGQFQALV
- run.description: Biacore, Fab, monkey Fc-PD-1
endpoint.label: kon (M⁻¹ s⁻¹)

{"columns": ["binder", "quantitative.readout"],
 "data": [
  ["A35793 (Fab, V domains shown, humanized Fab clone of 137F2; also called humanized antibody A35793) VH: QMQLVQSGPEVKKPGTSVKVSCKASGFTFTNYWIGWVRQAPGQALEWMGDIYPGGGYTNYNEKFKGRVTITADKSTSTAYMELSSLRSEDTAVYYCARGYDFVLDRWGQGTTVTVSS VL: DVVMTQSPAFLSVTPGEKVTITCKSSQSLFNSETQKNYLAWYQQKPGQPPKLLIYWASTRESGVPSRFSGSGSGTDFTFTISSLEAEDAATYYCKQSYTLRTFGGGTKLEIK", 93200],
  ["A35818 (Fab, V domains shown, humanized Fab clone of 137F2; also called humanized antibody A35818) VH: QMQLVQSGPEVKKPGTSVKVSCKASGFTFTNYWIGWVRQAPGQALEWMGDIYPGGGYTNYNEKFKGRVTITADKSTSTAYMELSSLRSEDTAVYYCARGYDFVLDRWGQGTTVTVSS VL: DVVMTQSPAFLSVTPGEKVTITCKSSQSLFNSETQKNYLAWYQQKPGQAPRLLIYWASTRESGVPSRFSGSGSGTDFTFTISSLEAEDAATYYCKQSYTLRTFGGGTKLEIK", 91400],
  ["A35795 (Fab, V domains shown, humanized Fab clone of 137F2; also called humanized antibody A35795) VH: QVQLVQSGAEVKKPGASVKVSCKASGYTFTNYWIGWVRQAPGQGLEWMGDIYPGGGYTNYNEKFKGRVTITADKSTSTAYMELSSLRSEDTAVYYCARGYDFVLDRWGQGTTVTVSS VL: DVVMTQSPAFLSVTPGEKVTITCKSSQSLFNSETQKNYLAWYQQKPGQAPRLLIYWASTRESGVPSRFSGSGSGTDFTLTISSLQPEDFATYYCKQSYTLRTFGGGTKLEIK", 92500]
]}
